system: Human RSV-A (“Long” strain); assay: RSV-A in vitro cytoprotection assay in HEp-2 cells (ATPlite readout); assay type: cell-based; conditions: human respiratory syncytial virus, 96 h, 4-day incubation, ATPlite cell viability (CPE protection)
EC50 by entry:

# Molecule, EC50
records = [
    ("O=C(N[C@H]1C=C(c2ccccc2)c2ccccc2NC1=O)c1ccccc1 [Example 17]", "> 5000 nM"),
    ("O=C1Nc2ccccc2C(c2ccccc2)=C[C@@H]1Nc1nnc(-c2cn(-c3ccccn3)nc2N2CCOCC2)o1 [Example 2]", "1000 to 5000 nM"),
    ("O=C1Nc2ccccc2C(c2ccccc2)=C[C@@H]1Nc1nnc(-c2ncc(C3CCC3)cc2N2CCOCC2)o1 [Example 9]", "1000 to 5000 nM"),
    ("O=C(Nc1ccccc1F)N[C@H]1C=C(c2ccccc2)c2ccccc2NC1=O [Example 15]", "> 5000 nM"),
    ("O=C1Nc2ccccc2C(c2ccccc2)=C[C@@H]1Nc1nnc(-c2cccnc2N2CCOCC2)o1 [Example 4]", "1000 to 5000 nM"),
    ("O=C1Nc2ccccc2C(c2ccccc2)=C[C@@H]1Nc1nnc(-c2nc(C3CC3)sc2N2CCOCC2)o1 [Example 11]", "< 1000 nM"),
    ("O=C1Nc2ccccc2C(c2ccccc2)=C[C@H]1Nc1nnc(-c2nc(-c3cccnc3)sc2N2CCOCC2)o1 [Example 14]", "1000 to 5000 nM"),
    ("O=C1Nc2ccccc2C(c2ccccc2)=C[C@@H]1Nc1nnc(-c2ccc(F)cc2)o1 [Example 1]", "1000 to 5000 nM"),
    ("O=C1Nc2ccccc2C(c2ccccc2)=C[C@@H]1Nc1nnc(-c2ncc(C(F)(F)F)cc2N2CCOCC2)o1 [Example 10]", "< 1000 nM"),
    ("C#Cc1cnc(-c2nnc(N[C@H]3C=C(c4ccccc4)c4ccccc4NC3=O)o2)c(N2CCOCC2)c1 [Example 6]", "< 1000 nM"),
    ("O=C1Nc2ccccc2C(c2ccccc2)=C[C@@H]1Nc1nnc(-c2ccc(N3CCOCC3)cc2F)o1 [Example 3]", "1000 to 5000 nM"),
    ("O=C1Nc2ccccc2C(c2ccccc2)=C[C@@H]1Nc1nc2ccccc2o1 [Example 16]", "> 5000 nM"),
    ("O=C1Nc2ccccc2C(c2ccccc2)=C[C@H]1Nc1nnc(-c2nc(C3CC3)sc2N2CCOCC2)o1 [Example 12]", "< 1000 nM"),
    ("O=C1Nc2ccccc2C(c2ccccc2)=C[C@@H]1Nc1nnc(-c2ncc(Br)cc2N2CCOCC2)o1 [Example 7]", "< 1000 nM"),
    ("O=C1Nc2ccccc2C(c2ccccc2)=C[C@@H]1Nc1nnc(-c2nc(-c3cccnc3)sc2N2CCOCC2)o1 [Example 13]", "< 1000 nM"),
    ("O=C1Nc2ccccc2C(c2ccccc2)=C[C@@H]1Nc1nnc(-c2ncc(C3CC3)cc2N2CCOCC2)o1 [Example 5]", "< 1000 nM"),
    ("N#Cc1cnc(-c2nnc(N[C@H]3C=C(c4ccccc4)c4ccccc4NC3=O)o2)c(N2CCOCC2)c1 [Example 8]", "< 1000 nM"),
]
